Target: HLA-DR DRB1*1501 (human)
Assay: competition vs 125I-labeled peptide, purified HLA
Would you kindly list IC50 for each of these binders?
Give bare numbers, in nM.

Sample records with IC50:
TRPILSPLTKGILGF (modifications not checked) [Flu.M1.51]	140
MEWLKTRPILSPLTK (modifications not checked) [Flu.M1.46]	111

Now consider the entry below.
Q: Which IC50 reading was recorded for the binder KSSFFRNVVWLIKKN (modifications not checked) [Flu.HA.156] ?
A: 832
